details: buffer; pH 7.4; 200.0 µM
Property Name: solubility kinetic

Kindly note the recorded solubility kinetic for Cc1ccc(S(=O)(=O)N2CCC(C(=O)NC3CC3)CC2)cc1 , which is > 48.4 µg/mL

Per the record, CCCCC(=O)N=c1sc2c(OC)ccc(OC)c2n1C has solubility kinetic of < 0.3 µg/mL

Lab book: solubility kinetic of COc1ccc(C(O)Cc2nccn2C)cc1 (stereo unspecified) noted as > 34.8 µg/mL

Please fill in: solubility kinetic reported for Cc1cccc(C)c1OCC(=O)Nc1cccc(C(=O)O)c1 = > 44.9 µg/mL

Form: molecule = O=C(CN1CCCCC1)c1c[nH]c2ccccc12 ; solubility kinetic = > 36.3 µg/mL

Noted for C#CC[N+](C)(C)CC#Cc1ccc(C)cc1.[Br-] : its solubility kinetic reads > 43.8 µg/mL

Reported solubility kinetic of Fc1ccc(-c2noc(-c3ccc4c(c3)CCO4)n2)cc1 : < 0.3 µg/mL

So, CC(=O)NCCc1nc2ccccc2n1CCOc1cccc(C)c1 ? Its solubility kinetic was > 50.6 µg/mL

Query O=c1c(Cc2ccc(Cl)cc2Cl)c(O)ccn1Cc1ccncc1 yields solubility kinetic of > 54.2 µg/mL

Looking up O=C(OCC(=O)c1ccc(Cl)cc1Cl)c1cnccn1 , I found its solubility kinetic recorded as > 46.7 µg/mL

According to the records, this molecule CC(CCc1ccccc1)NC(=O)CSc1cccc[n+]1[O-] (stereo unspecified) displays solubility kinetic of 40.6 µg/mL

The reported solubility kinetic of the molecule Cc1csc(Nc2ccccc2)[n+]1C.[Br-] was 30.2 µg/mL

The molecule listed as NC(=O)c1ccc(NC(=O)c2cccc3c2OCCCO3)cc1 shows solubility kinetic equal to 14.5 µg/mL

solubility kinetic recorded for this molecule, O=C(NCc1ccc(F)cc1)c1ccncc1 , is 34.2 µg/mL

The measured solubility kinetic associated with Cc1nc(NC(=O)CSc2nc(N)cc(N)n2)sc1C reads > 46.6 µg/mL

The recorded solubility kinetic for CC1C(=O)Nc2ccccc2N1C(=O)c1c(F)cccc1F (stereo unspecified) is > 45.3 µg/mL

Reported solubility kinetic of C=CCSc1ncc(CO)n1Cc1ccccc1 : 37.9 µg/mL

The molecule listed as Cc1ccc(C)c(N2CCN(C3CCCC(C)C3)CC2)c1 (stereo unspecified) has a reported solubility kinetic of 23.3 µg/mL

So for CCc1noc(C)c1C(=O)OCC(=O)N1CCc2ccccc21 , the logged solubility kinetic turned out to be 4.6 µg/mL

Quick note, solubility kinetic for COc1cc(C(=O)NC2CCCc3ccccc32)cc(OC)c1C (stereo unspecified) landed at < 0.7 µg/mL

The molecule Cc1cnc(C(=O)OCC(=O)Nc2ccc(C)c(S(=O)(=O)N3CCOCC3)c2)cn1 showed solubility kinetic equal to > 65.2 µg/mL

// recorded solubility kinetic for CC(=O)c1c(C)[nH]c(C(=O)COC(=O)c2c(-c3ccccc3)noc2C)c1C : 2.1 µg/mL

Quick note, solubility kinetic for CN1CCN(c2ccc([N+](=O)[O-])cc2NC(=O)c2ccco2)CC1 landed at 20.8 µg/mL

Query Nc1cc(N)nc(SCC(=O)NNC(=O)Cc2ccccc2)n1 yields solubility kinetic of > 49.9 µg/mL

Data point: O=C(Nc1ccc(F)cc1)Nc1cccc(Br)c1 ; solubility kinetic = 0.7 µg/mL

// recorded solubility kinetic for O=C(N/N=C/c1cc(Cl)cc([N+](=O)[O-])c1O)C1CC1 : > 42.6 µg/mL

So, O=C(NCc1ccccn1)Nc1ccccc1C(F)(F)F ? Its solubility kinetic was > 44.3 µg/mL

Please fill in: solubility kinetic reported for Cn1c(=O)[nH]c2ncn(C)c2c1=O = > 27 µg/mL

Query CC(C)COc1cccc(C(=O)NC2(C)CCS(=O)(=O)C2)c1 (stereo unspecified) yields solubility kinetic of > 48.8 µg/mL

CC(C)N(Cc1ccccc1)C(=O)COC(=O)c1cnc(Cl)c(Cl)c1 has a reported solubility kinetic of 33.9 µg/mL

Entry CN(NC1OC(=O)c2ccccc21)c1ccccc1[N+](=O)[O-] (stereo unspecified) — recorded solubility kinetic = > 44.9 µg/mL

Per the record, CC(=O)c1ccc(OCCOc2ccc(C#N)cc2)cc1 has solubility kinetic of 6.8 µg/mL

Looking up Cc1ccc(SCc2nc3ncccn3c2Br)cc1 , I found its solubility kinetic recorded as > 50.1 µg/mL

solubility kinetic measured on CC(C)N(c1ccccc1)c1ccc(NC(=S)NCCN(C)C)cc1 = 44 µg/mL

Input CC(C)c1ccc(N2C(=O)C3C4C=CC(CC4)C3C2=O)cc1 (stereo unspecified) . Output solubility kinetic: 2.7 µg/mL

Lab book: solubility kinetic of Cc1cccc(C)c1NC(=O)CN1C(=O)COc2ccccc21 noted as 6 µg/mL

---

conditions: buffer; pH 7.4; 200.0 µM
Property Name: solubility kinetic

# molecule O=C1C(Cc2ccc(O)cc2)NC(=S)N1Cc1ccccc1 (configuration not stated) ; its solubility kinetic = > 0.0469 mg/mL

Per the records, this molecule ( N#Cc1ccc(C(=O)OCC(=O)N2CCCC2)cc1 ) has solubility kinetic equal to > 0.0387 mg/mL

Input Cc1cnc(C(=O)OCC(=O)Nc2cccc3ccccc23)cn1 . Output solubility kinetic: > 0.0482 mg/mL

The recorded solubility kinetic for entry COc1ccccc1NC(=O)COC(=O)C1CC2CCCC(C1)C2=O (configuration not stated) equals > 0.0518 mg/mL

The reported solubility kinetic of the molecule Cn1c(SCc2cccnc2)nc2c(c1=O)SCC2 was > 0.0437 mg/mL

Noted for COc1ccc(OC)c(NC(=O)c2csc(Cl)c2OC)c1 : its solubility kinetic reads < 0.0007 mg/mL

Short answer for COc1ccccc1NCCC(=O)O : solubility kinetic was > 0.0293 mg/mL

Data point: CC(=O)Nc1ccc(CC#N)cc1 ; solubility kinetic = > 0.0261 mg/mL

Reported solubility kinetic of CCOc1ncccc1C(=O)OCC(=O)NCc1cccs1 : > 0.0481 mg/mL

For CC(OC(=O)c1c[nH]c2ccccc12)C(=O)N1CCCC1 (configuration not stated) the molecule record lists solubility kinetic as > 0.0429 mg/mL

Record O=Cc1c(C(=O)O)n(Cc2ccc(F)cc2Cl)c2ccccc12 . Reported solubility kinetic: > 0.0498 mg/mL

The recorded solubility kinetic for entry Cc1noc(C)c1-c1nc(CSc2ccc(Cl)cc2)no1 equals < 0.0002 mg/mL

Consider O=C1CC(=O)N(c2ccccc2)C(=O)N1c1ccccc1 . Its measured solubility kinetic is > 0.042 mg/mL

// sample CC1Cc2ccccc2N1C(=O)CSc1ncccn1 (configuration not stated) , its solubility kinetic was > 0.0428 mg/mL

Documented solubility kinetic of CCN1CCN(c2nc3ccccn3c(=O)c2C=O)CC1 : > 0.0429 mg/mL

Form field solubility kinetic, entry NC(=S)NC1CC2CC1C1C=CCC21 (configuration not stated) : > 0.0312 mg/mL

Entry Cn1c(CO)nc2c3ccccc3ccc21 — recorded solubility kinetic = > 0.0318 mg/mL

Please fill in: solubility kinetic reported for CC(NS(=O)(=O)c1ccc(Cl)cc1)C(=O)N1CCOCC1 (configuration not stated) = 0.0397 mg/mL

Consider C=C(C)CN1C(=O)C2(OCCO2)c2cc(Br)ccc21 . Its measured solubility kinetic is 0.0411 mg/mL

Record summary for Cc1cc(C)c(NC(=O)Nc2ccccc2)c(C)n1 : reported solubility kinetic = 0.0343 mg/mL

Item: Fc1ccc2nc(N3CCCC3)sc2c1 | solubility kinetic: 0.0156 mg/mL

Measured solubility kinetic, O=C1C2CCCN2C(=O)N1CCCN1CCN(c2ccc([N+](=O)[O-])cc2)CC1 (configuration not stated) : 0.0494 mg/mL

Input O=C(c1cccc([N+](=O)[O-])c1)N1CCN(c2ncccn2)CC1 . Output solubility kinetic: > 0.047 mg/mL

Noted for CCOc1ccc(Br)cc1C(=S)N1CCCC1 : its solubility kinetic reads 0.0062 mg/mL

Lookup result for Cc1nc(N2CCOCC2)[nH]c(=O)c1[N+](=O)[O-] ; measured solubility kinetic: 0.0331 mg/mL

Lookup result for Cc1cc(C)c2cc(C(=O)Nc3ccc4c(c3)OCO4)[nH]c2c1 ; measured solubility kinetic: < 0.0003 mg/mL

For reference, reported solubility kinetic for CSc1ncccc1C(=O)NCc1ccccc1Cl stands at 0.0381 mg/mL

Short answer for O=C(N/N=C/c1ccccn1)c1cccnc1 : solubility kinetic was > 0.0339 mg/mL

For Cc1ccc(NC(=S)NCCc2ccc(Cl)cc2)c(C)c1 the molecule record lists solubility kinetic as < 0.0003 mg/mL

Record Cc1[nH]c2ccc(C(C)C)cc2c1CC(=O)O , field solubility kinetic: > 0.0347 mg/mL

The molecule O=C(CSc1ccc2c(c1)OCCO2)Nc1cccnc1 showed solubility kinetic equal to > 0.0454 mg/mL

Notebook: Clc1ccc(OCCN2CCOCC2)cc1 , solubility kinetic read as 0.0287 mg/mL

COc1cnc(-c2cccc(C(F)(F)F)c2)nc1OC has a reported solubility kinetic of < 0.0003 mg/mL

For Cc1ccc(N2CN(CCc3ccccc3)CNC2=S)cc1 the molecule record lists solubility kinetic as 0.0065 mg/mL

Noted for CCNC(=O)c1cc(S(=O)(=O)N2CCSCC2)ccc1OC : its solubility kinetic reads 0.0451 mg/mL

Input Cc1ccc(NC2SC(=O)N(Cc3cccc(C(=O)O)c3)C2=O)c(C)c1 (configuration not stated) . Output solubility kinetic: 0.0531 mg/mL

solubility kinetic reading for COC(=O)c1ccc(OCC(=O)NC2CCCCCC2)cc1 : > 0.0458 mg/mL
